Taken from patent US12545680B2.

Parameter: Emax. Scope: all listed entries.
# Tested on: MOR receptor (OPRM1) (Homo sapiens, UniProt P35372)
# Sequence (P35372 whole entry): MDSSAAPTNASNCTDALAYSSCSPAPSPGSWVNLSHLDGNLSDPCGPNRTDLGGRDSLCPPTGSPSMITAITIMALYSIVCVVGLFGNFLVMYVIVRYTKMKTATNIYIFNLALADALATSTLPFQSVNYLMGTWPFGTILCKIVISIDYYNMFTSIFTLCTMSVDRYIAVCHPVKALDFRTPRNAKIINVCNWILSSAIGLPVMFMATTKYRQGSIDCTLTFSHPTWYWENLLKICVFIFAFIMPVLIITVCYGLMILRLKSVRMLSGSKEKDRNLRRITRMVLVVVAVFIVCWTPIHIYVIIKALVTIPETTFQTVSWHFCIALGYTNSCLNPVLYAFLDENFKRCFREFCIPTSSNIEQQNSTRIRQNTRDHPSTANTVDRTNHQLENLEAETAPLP
# Protocol details: β-Arrestin cell experiment
# Condition parameters: read-out: β-arrestin Emax (%) Morphine was 100%, PathHunter CHO-K1 OPRM1 β-Arrestin cell line; maximum effect relative to morphine = 100%
Note: unit % is implicit; provide only the numeric part.

Example results:
>  <Compound>
CC(C)(C)C1CC(NCC[C@@]2(c3ccccn3)CCOC3(CCCC3)C2)c2ccnn21 (some centres unmarked) [Compound H-6]

>  <Tested on>
MOR receptor (OPRM1) (Homo sapiens, UniProt P35372)

>  <Numeric readout>
15.3

$$$$
>  <Compound>
c1ccc([C@]2(CCNC3CC4(CCCC4)n4nccc43)CCOC3(CCCC3)C2)nc1 (some centres unmarked) [Compound H-19]

>  <Tested on>
MOR receptor (OPRM1) (Homo sapiens, UniProt P35372)

>  <Numeric readout>
17.3

$$$$
>  <Compound>
c1ccc([C@]2(CCNC3CC(C4CCCC4)n4nccc43)CCOC3(CCCC3)C2)nc1 (some centres unmarked) [Compound H-5]

>  <Tested on>
MOR receptor (OPRM1) (Homo sapiens, UniProt P35372)

>  <Numeric readout>
4.8

$$$$
>  <Compound>
CC1(C)CC(NCC[C@@]2(c3ccccn3)CCOC3(CCCC3)C2)c2ccnn21 (some centres unmarked) [Compound H-22]

>  <Tested on>
MOR receptor (OPRM1) (Homo sapiens, UniProt P35372)

>  <Numeric readout>
39.9

$$$$
>  <Compound>
CCCC1CC(NCC[C@@]2(c3ccccn3)CCOC3(CCCC3)C2)c2ccnn21 (some centres unmarked) [Compound H-14]

>  <Tested on>
MOR receptor (OPRM1) (Homo sapiens, UniProt P35372)

>  <Numeric readout>
7.2

$$$$
>  <Compound>
c1ccc([C@]2(CCNC3CC(C4CC4)n4nccc43)CCOC3(CCCC3)C2)nc1 (some centres unmarked) [Compound H-3]

>  <Tested on>
MOR receptor (OPRM1) (Homo sapiens, UniProt P35372)

>  <Numeric readout>
4.9

$$$$
>  <Compound>
CC1(C2CC(NCC[C@@]3(c4ccccn4)CCOC4(CCCC4)C3)c3ccnn32)CC1 (some centres unmarked) [Compound H-10]

>  <Tested on>
MOR receptor (OPRM1) (Homo sapiens, UniProt P35372)

>  <Numeric readout>
5.1

$$$$

# evaluate next
Q. Can you share its Emax? I mean this compound: CC(C)C1CC(NCC[C@@]2(c3ccccn3)CCOC3(CCCC3)C2)c2c(F)cnn21 (some centres unmarked) [Compound H-9]
A. 1

----------
# Tested on: UniProt:P35372
# Protocol details: HTRF-cAMP cell experiment
# Condition parameters: cAMP EC50 (nM), PathHunter CHO-K1 OPRM1 β-Arrestin cell line, NKH477-stimulated cAMP, HTRF
EC50: recorded values
Respond with the bare value in nM.

Below, 3 compounds whose answers are already recorded.
>  <Compound>
CCC(C)C1CC(NCC[C@@]2(c3ccccn3)CCOC3(CCCC3)C2)c2ccnn21 (stereo partly drawn)

>  <EC50 [nM]>
84

$$$$
>  <Compound>
CCC1CC(NCC[C@@]2(c3ccccn3)CCOC3(CCCC3)C2)c2ccnn21 (mixture of isomers) [Compound H-4-1]

>  <EC50 [nM]>
8

$$$$
>  <Compound>
c1ccc([C@]2(CCNC3CC4(CCOCC4)n4nccc43)CCOC3(CCCC3)C2)nc1 (stereo partly drawn)

>  <EC50 [nM]>
4

$$$$

Q. Look at this compound and give its reported EC50. CC1(C)CC(NCC[C@@]2(c3ccccn3)CCOC3(CCCC3)C2)c2ccnn21 (stereo partly drawn)
A. 11

Q. Same thing, different compound: CC1CC(NCC[C@@]2(c3ccccn3)CCOC3(CCCC3)C2)c2ccnn21 (mixture of isomers)
A. 12

Q. Same thing, different compound: CC(C)(F)C1CC(NCC[C@@]2(c3ccccn3)CCOC3(CCCC3)C2)c2ccnn21 (stereo partly drawn)
A. 29

Q. Next compound: CC(C)C1CC(NCC[C@@]2(c3ccccn3)CCOC3(CCCC3)C2)c2ccnn21 (stereo partly drawn)
A. 15

Q. What do we get for CCC1CC(NCC[C@@]2(c3ccccn3)CCOC3(CCCC3)C2)c2ccnn21 (mixture of isomers) [Compound H-4-2] ?
A. 18

Q. What about c1ccc([C@]2(CCNC3CC(C4CC4)n4nccc43)CCOC3(CCCC3)C2)nc1 (stereo partly drawn) ?
A. 17

----------
# Tested on: MOR receptor (OPRM1) (Homo sapiens)
# Protocol details: HTRF-cAMP cell experiment
# Condition parameters: cAMP EC50 (nM), PathHunter CHO-K1 OPRM1 β-Arrestin cell line, NKH477-stimulated cAMP, HTRF
Reported endpoint: EC50 (nM)
Please give a number only; it is taken to be in nM.

>  <Compound>
FC(F)(F)C1(C2CC(NCC[C@@]3(c4ccccn4)CCOC4(CCCC4)C3)c3ccnn32)CC1 (some centres unmarked) [Compound H-17]

>  <Tested on>
MOR receptor (OPRM1) (Homo sapiens)

>  <Reported endpoint>
EC50

>  <Numeric readout>
31

$$$$
>  <Compound>
c1ccc([C@]2(CCNC3CCn4nccc43)CCOC3(CCCC3)C2)nc1 (some centres unmarked) [Compound H-1]

>  <Tested on>
MOR receptor (OPRM1) (Homo sapiens)

>  <Reported endpoint>
EC50

>  <Numeric readout>
49

$$$$
>  <Compound>
CC(C)(C)C1CC(NCC[C@@]2(c3ccccn3)CCOC3(CCCC3)C2)c2ccnn21 (some centres unmarked) [Compound H-6]

>  <Tested on>
MOR receptor (OPRM1) (Homo sapiens)

>  <Reported endpoint>
EC50

>  <Numeric readout>
9

$$$$
>  <Compound>
c1ccc([C@]2(CCNC3CC4(CCC4)n4nccc43)CCOC3(CCCC3)C2)nc1 (some centres unmarked) [Compound H-21]

>  <Tested on>
MOR receptor (OPRM1) (Homo sapiens)

>  <Reported endpoint>
EC50

>  <Numeric readout>
22

$$$$
>  <Compound>
COC(C)(C)C1CC(NCC[C@@]2(c3ccccn3)CCOC3(CCCC3)C2)c2ccnn21 (some centres unmarked) [Compound H-2]

>  <Tested on>
MOR receptor (OPRM1) (Homo sapiens)

>  <Reported endpoint>
EC50

>  <Numeric readout>
47

$$$$

Q. Using the record for c1ccc([C@]2(CCNC3CC4(CCCC4)n4nccc43)CCOC3(CCCC3)C2)nc1 (some centres unmarked) [Compound H-19] , report its EC50.
A. 21

Q. Lookup CC1(C2CC(NCC[C@@]3(c4ccccn4)CCOC4(CCCC4)C3)c3ccnn32)CC1 (some centres unmarked) [Compound H-10]
A. 11

Q. Here is the next compound: CCCC1CC(NCC[C@@]2(c3ccccn3)CCOC3(CCCC3)C2)c2ccnn21 (some centres unmarked) [Compound H-14]
A. 31

----------
Recorded Emax by entry
# Tested on: MOR receptor (OPRM1) (Homo sapiens, UniProt P35372)
# Protocol details: β-Arrestin cell experiment
# Condition parameters: read-out: β-arrestin Emax (%) Morphine was 100%, PathHunter CHO-K1 OPRM1 β-Arrestin cell line; maximum effect relative to morphine = 100%
// note: answer is a bare numeric in %

Worked examples, 5 compounds total:
>  <Compound>
c1ccc([C@]2(CCNC3CC4(CCC4)n4nccc43)CCOC3(CCCC3)C2)nc1 (stereo partly shown)

>  <Numeric readout>
8

$$$$
>  <Compound>
c1ccc([C@]2(CCNC3CCn4nccc43)CCOC3(CCCC3)C2)nc1 (stereo partly shown)

>  <Numeric readout>
29.7

$$$$
>  <Compound>
CC(C)(F)C1CC(NCC[C@@]2(c3ccccn3)CCOC3(CCCC3)C2)c2ccnn21 (stereo partly shown)

>  <Numeric readout>
22.1

$$$$
>  <Compound>
CC(C)C1CC(NCC[C@@]2(c3ccccn3)CCOC3(CCCC3)C2)c2ccnn21 (stereo partly shown)

>  <Numeric readout>
4.3

$$$$
>  <Compound>
COC(C)(C)C1CC(NCC[C@@]2(c3ccccn3)CCOC3(CCCC3)C2)c2ccnn21 (stereo partly shown)

>  <Numeric readout>
6.2

$$$$

Q. Form field: reported Emax of FC(F)(F)C1(C2CC(NCC[C@@]3(c4ccccn4)CCOC4(CCCC4)C3)c3ccnn32)CC1 (stereo partly shown)
A. 2.6

Q. Can you check CC1CC(NCC[C@@]2(c3ccccn3)CCOC3(CCCC3)C2)c2ccnn21 (mixture of isomers) next?
A. 12

----------
# Tested on: UniProt:P35372
# Protocol details: HTRF-cAMP cell experiment
# Condition parameters: PathHunter CHO-K1 OPRM1 β-Arrestin cell line; maximum effect relative to morphine = 100%
Reported endpoint: cAMP Emax (%) Morphine was 100%
API: value field is a number in %; no unit string.

Q. Item under review: CC1CC(NCC[C@@]2(c3ccccn3)CCOC3(CCCC3)C2)c2ccnn21 (mixture of isomers) [Compound H-12-1] . Reported cAMP Emax (%) Morphine was 100%?
A. 99.5

Q. Would you kindly repeat that for CC1CC(NCC[C@@]2(c3ccccn3)CCOC3(CCCC3)C2)c2ccnn21 (mixture of isomers) [Compound H-12-2] ?
A. 77.8

Q. Moving on to the next compound: CCC1CC(NCC[C@@]2(c3ccccn3)CCOC3(CCCC3)C2)c2ccnn21 (mixture of isomers) [Compound H-4-1]
A. 64.1

Q. Now give it for CCC1CC(NCC[C@@]2(c3ccccn3)CCOC3(CCCC3)C2)c2ccnn21 (mixture of isomers) [Compound H-4-2] too.
A. 91.8

Q. And CC(C)(C1CC(NCC[C@@]2(c3ccccn3)CCOC3(CCCC3)C2)c2ccnn21)C(F)(F)F (some centres unmarked) [Compound H-18] ?
A. 89.1
